Recorded values, source ChEMBL document CHEMBL1201862.

GI50 values, listed per item
tested on: PC-3; assay: NCI tumour cell line growth inhibition, 48 h
The source made the active and inactive calls. No stated cut-off is given here; in the data, active = GI50 up to about 1.1 µM and inactive = higher.

compound	GI50
CC(=O)CCN1CC2CN=NC2(C#N)C1 (stereo unspecified)	> 100 µM (inactive)
COc1cc2c(cc1OCCCCCN1C(=O)c3cccc4cccc(c34)C1=O)N=C[C@@H]1CCCN1C2=O	0.282 µM (active)
N#CCc1c(F)c(F)c(F)c(F)c1F	> 100 µM (inactive)
CC1CN=C(N(C(=O)Nc2ccccc2)C2CCCCC2)S1 (stereo unspecified)	15.5 µM (inactive)
CC1=C2C(=O)O[C@@H](c3ccoc3)[C@]2(C)CCC1=O	> 100 µM (inactive)
CCOC(=O)c1c(N)sc2c1C(C(=O)OCC)CCC2 (stereo unspecified)	68.1 µM (inactive)
C#CCOC(=O)C(N)CC(N)=O (stereo unspecified)	> 100 µM (inactive)
CCCCCCCCCCCCCCCCNc1nc(=O)n(C2OC(C)C(O)C2O)cc1F (stereo unspecified)	13.2 µM (inactive)
COc1cccc(CSCC(=O)O)c1	> 100 µM (inactive)
O=C1CCCc2cc3c(cc21)CC1(C3)Cc2ccc3c(c2C1)C(=O)CCC3 (stereo unspecified)	21.7 µM (inactive)
CCOC(=O)c1cc(C2CCN(Cc3ccccc3)C2=S)c(C(=O)C=[N+]=[N-])[nH]1 (stereo unspecified)	27.4 µM (inactive)
O=c1[nH]c(Br)nc2[nH]nnc12	69.5 µM (inactive)
Nc1ncnc2c1ncn2[C@H]1CC[C@@H](NO)C1	> 100 µM (inactive)
Cc1ccc(C2(c3ccc(C)c(O)c3C)CCN(C)CC2)c(C)c1O	35 µM (inactive)
OCCNc1ncnc2c1ncn2C1OC(CO)C(O)C1O (stereo unspecified)	47.4 µM (inactive)
COc1ccc(C(=CCC(C)C2CCC3[C@@H]4C(OC(C)=O)CC5CC(OC(C)=O)CC[C@]5(C)C4CC(OC(C)=O)[C@]23C)c2ccc(OC)cc2)cc1 (stereo partly specified)	19.5 µM (inactive)

###

tested on: SK-MEL-2; experiment: NCI tumour cell line growth inhibition, 48 h
The source made the active and inactive calls. Rule as the data show it: active = GI50 up to about 1.1 µM and inactive = higher.
measurement-kind: GI50

>>> print(df.to_string())
                                   molecule    system  measurement_kind        value_observed
0  O=C1c2ccccc2-c2c1c1ccccc1c(=O)n2-c1cccnc1  SK-MEL-2              GI50   > 100 µM (inactive)
1  O=C(c1nc2ccc(Cl)cc2[nH]c1=O)C(O)c1cccc([N+](=O)[O-])c1 (stereo unspecified)  SK-MEL-2              GI50   > 100 µM (inactive)
2  C=C1[C@@H]2CCC(C)(C)[C@H]1CCC(=O)[C@@H]2C(=O)OC  SK-MEL-2              GI50   > 100 µM (inactive)
3  O=C1C[C@H](Sc2ccccc2)C2(OCCO2)[C@@H](Sc2ccccc2)C1  SK-MEL-2              GI50    10.2 µM (inactive)
4               Oc1ccc(Cl)cc1Sc1cc(Cl)ccc1O  SK-MEL-2              GI50    10.5 µM (inactive)
5  O=C1c2ccccc2C(=O)N1/N=C1/SC(=N\c2ccccc2)/C(=N/c2ccccc2)N1c1ccccc1  SK-MEL-2              GI50  > 55.2 µM (inactive)

###

GI50 values, listed per item
tested on: HCT-15

compound	system	GI50
COc1ccc(-c2c3c(nc4nc(SCCc5ccccc5)nc(N)c24)CCCC3)cc1OC	HCT-15	> 100 µM
COc1cc(C=C2C(=O)OC(C)(C)OC2=O)cc(OC)c1OC	HCT-15	> 100 µM
C=CCN(c1cc(OCc2ccccc2)c2c(c1)c(C)cn2S(=O)(=O)c1ccccc1)S(C)(=O)=O	HCT-15	> 100 µM
CCOC(=O)NC(OCc1ccccc1)(C(=O)OC)C(F)(F)F (stereo not given)	HCT-15	> 100 µM
CCCC#CCOC(=O)c1cc([N+](=O)[O-])cc([N+](=O)[O-])c1	HCT-15	> 100 µM
CN1NC2(CCCCC2)ON=C1c1ccccc1	HCT-15	> 100 µM
CC(=O)OCC1OC(n2c(C)c(C(C)=O)c(-c3cccc4ccccc34)c(C#N)c2=S)C(OC(C)=O)C(OC(C)=O)C1OC(C)=O (stereo not given)	HCT-15	> 100 µM
c1cncc(C2c3[nH]c4ccccc4c3CCN2CCN2CCCCC2)c1 (stereo not given)	HCT-15	> 100 µM
C=CCC(O)c1cc(OC)ccc1OC (stereo not given)	HCT-15	> 100 µM
Cc1cc2c(C)nn(Cc3ccccc3Cl)c2c(C#N)c1C	HCT-15	> 100 µM
C[C@]12CC(C#N)C(=O)C(O)=C1CC[C@@H]1C2CC[C@@]2(C)C1CC[C@@H]2O (stereo not given in full)	HCT-15	48.6 µM
CC(=O)Nc1ccc2c3c(cc(O)c2c1)N(C(=O)CCCCC(=O)Nc1ccc2c4c(cc(O)c2c1)N(C(=O)OC(C)(C)C)CC4CCl)CC3CCl (stereo not given)	HCT-15	16.7 µM
O=c1ssc(Cl)c1Cl	HCT-15	> 10 µM
COc1ccc(C2SC(=N)Nc3c2c(C)nn3C(=O)Cc2ccccc2)cc1 (stereo not given)	HCT-15	> 100 µM
CON(C)C(=O)C1CCCO1 (stereo not given)	HCT-15	> 100 µM
O=C1c2ccccc2C(=O)N1/N=C1/SC(=N\c2ccccc2)/C(=N/c2ccccc2)N1c1ccccc1	HCT-15	> 47.5 µM
CCNC(=S)N/N=C(/C)c1cccc(/C(C)=N\NC(=S)NCC)n1	HCT-15	0.493 µM
O=C1C(Cl)=C(NCCOCCO)C(=O)c2c(O)ccc(O)c21	HCT-15	1.85 µM
CC(C)=CCC/C(C)=C/CC/C(C)=C/[C@@H]1[C@@H](CO)[C@]1(C)CC/C=C(\C)CCC=C(C)C	HCT-15	30.3 µM
CN1CC2=C(OC(N)=C(C#N)C2c2cccs2)/C(=C/c2cccs2)C1 (stereo not given)	HCT-15	15.5 µM
Cc1ccc(S(=O)(=O)Nn2c(S)c(C#N)c(-c3ccc([N+](=O)[O-])cc3)c(C#N)c2=O)cc1	HCT-15	17.3 µM
C[C@H](CC[C@@H](O)C(C)(C)O)[C@H]1CC[C@@]2(C)[C@@H]3CC=C4[C@@H](CC[C@H](OC5OC(CO)C(O)C(O)C5O)C4(C)C)[C@]3(C)C(=O)C[C@]12C (stereo not given in full)	HCT-15	67.9 µM
CCCCOC(=O)C1C(c2ccc(Cl)cc2)NC(c2ccc(Cl)cc2)C(C(=O)OCCCC)S1(=O)=O (stereo not given)	HCT-15	> 100 µM
CNC(=O)OCC1=C(COC(=O)NC)CN(c2ccccc2)C1	HCT-15	> 100 µM
C/C(=C\c1csc(C)n1)[C@@H]1C[C@@H]2O[C@]2(C)CCC[C@H](C)[C@H](O)[C@@H](C)C(=O)C(C)(C)[C@@H](O)CC(=O)O1 [PATUPILONE]	HCT-15	< 0.0001 µM
CC(=O)CCN1CC2CN=NC2(C#N)C1 (stereo not given)	HCT-15	69 µM
COc1cc(C(=O)C/C(CCC(=O)Nc2ccc(Cl)cc2Cl)=N/Nc2nnc(C)n2N)ccc1O	HCT-15	> 100 µM
CCOC(=O)c1nc2cc(C(F)(F)F)ccc2nc1Nc1ccc(OC)cc1	HCT-15	> 100 µM
O=[N+]([O-])c1cccnc1NCC1(CO)CCCC1	HCT-15	18.5 µM
O=c1[nH][nH]c(=O)[nH]1	HCT-15	> 100 µM

###

test system: HOP-92; assay: NCI tumour cell line growth inhibition, 48 h
Active and inactive are the calls of the source. Rule as the data show it: active = GI50 up to about 1.1 µM and inactive = higher. *1 amine or outer side, *2 acyl side, *3 side chain or, on linkers, in order; H or OH if unused. Where a SMILES comes first, the peptide text is derived from it. Bridges are numbered along the chain shown (N, C = ends). Roman numbers before positions name the chains, in order. [ ]: non-standard residue; d: D form. Actinocin(9to1) = Cc1c2oc3c(C)ccc(C(=O)[*:1])c3nc-2c(C(=O)[*:2])c(N)c1=O; NMeV = CN[CH](C(=O)O)C(C)C; Sar = CNCC(=O)O
Outcomes: 1.0 for active, 0.0 for inactive

compound	system	assigned-label
O=C(NC(CCCCN1C(=O)c2ccccc2C1=O)P(=O)(Oc1ccccc1)Oc1ccccc1)OCc1ccccc1 (centres undefined)	HOP-92	0.0
Cc1c2oc3c(C)ccc(C(=O)NC4C(=O)NC(C(C)C)C(=O)N5CCCC5C(=O)N(C)CC(=O)N(C)C(C(C)C)C(=O)OC4C)c3nc-2c(C(=O)NC2C(=O)NC(C(C)C)C(=O)N3CCCC3C(=O)N(C)CC(=O)N(C)C(C(C)C)C(=O)OC2C)c(N)c1=O (centres undefined) (I: TVP[Sar][NMeV] / II: TVP[Sar][NMeV]; ester I:1-I:C, II:1-II:C; linker I:N-II:N via Actinocin(9to1); configuration not given here)	HOP-92	1.0
CC1(C)CC(=O)C(=CNC(=S)c2ccccc2)C(=O)C1	HOP-92	0.0
CCOC(=O)Nc1cc2ccccc2c(/N=N/c2ccccc2)c1O	HOP-92	0.0
O=C1C=Cc2c(Br)sc(Br)c21	HOP-92	0.0
CC1=NN(C(=O)c2ccccc2O)C(=O)/C1=C/c1cccc(O)c1	HOP-92	1.0
O=C1Cc2cn[nH]c2-c2ccccc2N1	HOP-92	0.0
C/C=C/C1=CC(=O)C(O)C1O (centres undefined)	HOP-92	0.0
C#CCOC(=O)C(N)CC(N)=O (centres undefined)	HOP-92	0.0
